# Assay comment: in vivo
# Assay context: beagle, dog, po, 0.067 mg/kg

Molecule: OC[C@H]1O[C@@H](c2ccc(Cl)c(Cc3ccc(OCCOC4CC4)cc3)c2)[C@H](O)[C@@H](O)[C@@H]1O [Bexagliflozin]
Reading unit: ng/mL
Cmax: 72.9

----------
# Assay comment: in vivo
# Assay context: beagle, dog, po, 0.67 mg/kg

Compound: OC[C@H]1O[C@@H](c2ccc(Cl)c(Cc3ccc(OCCOC4CC4)cc3)c2)[C@H](O)[C@@H](O)[C@@H]1O [Bexagliflozin]
Reading unit: ng·h/mL
AUC(0-inf): 2670

----------
# Assay comment: in vivo
# Assay context: beagle, dog, po, 0.2 mg/kg

Compound: OC[C@H]1O[C@@H](c2ccc(Cl)c(Cc3ccc(OCCOC4CC4)cc3)c2)[C@H](O)[C@@H](O)[C@@H]1O [Bexagliflozin]
CL/F: 4.42 mL/min/kg

----------
# Assay comment: in vivo
# Assay context: beagle, dog, po, 2 mg/kg
Quantity name: Cmax (ng/mL)

Compound: OC[C@H]1O[C@@H](c2ccc(Cl)c(Cc3ccc(OCCOC4CC4)cc3)c2)[C@H](O)[C@@H](O)[C@@H]1O [Bexagliflozin]
Result number: 2200

----------
# Assay comment: in vivo
# Assay context: beagle, dog, po, 0.2 mg/kg

Structure smiles string: OC[C@H]1O[C@@H](c2ccc(Cl)c(Cc3ccc(OCCOC4CC4)cc3)c2)[C@H](O)[C@@H](O)[C@@H]1O
Reading unit: ng/mL
Cmax: 233

----------
# Assay comment: in vivo
# Assay context: beagle, dog, po, 2 mg/kg

Molecule: OC[C@H]1O[C@@H](c2ccc(Cl)c(Cc3ccc(OCCOC4CC4)cc3)c2)[C@H](O)[C@@H](O)[C@@H]1O [Bexagliflozin]
half-life [min]: 233

----------
# Assay comment: in vivo
# Assay context: beagle, dog, po, 2 mg/kg
# Description: Groups of four purpose-bred beagles per cohort were administered ascending doses of bexagliflozin in the form of a proline co-crystal consisting of two moles of L-proline for every mole of bexagliflozin. […] Serum glucose concentrations were quantitated by an automated clinical chemistry analyzer for samples collected before dosing, before glucose challenge, and 15, 30, 60, and 120 min after glucose challenge. […]

Compound: OC[C@H]1O[C@@H](c2ccc(Cl)c(Cc3ccc(OCCOC4CC4)cc3)c2)[C@H](O)[C@@H](O)[C@@H]1O [Bexagliflozin]
CL/F [mL/min/kg]: 3.95

----------
# Assay comment: in vivo
# Assay context: beagle, dog, po, 2 mg/kg
# Description: Groups of four purpose-bred beagles per cohort were administered ascending doses of bexagliflozin in the form of a proline co-crystal consisting of two moles of L-proline for every mole of bexagliflozin. […] Serum glucose concentrations were quantitated by an automated clinical chemistry analyzer for samples collected before dosing, before glucose challenge, and 15, 30, 60, and 120 min after glucose challenge. […]

Structure smiles string: OC[C@H]1O[C@@H](c2ccc(Cl)c(Cc3ccc(OCCOC4CC4)cc3)c2)[C@H](O)[C@@H](O)[C@@H]1O
AUC(0-t) [ng·h/mL]: 8600

----------
# Assay comment: in vivo
# Assay context: beagle, dog, po, 0.02 mg/kg
# Description: Groups of four purpose-bred beagles per cohort were administered ascending doses of bexagliflozin in the form of a proline co-crystal consisting of two moles of L-proline for every mole of bexagliflozin. […] Serum glucose concentrations were quantitated by an automated clinical chemistry analyzer for samples collected before dosing, before glucose challenge, and 15, 30, 60, and 120 min after glucose challenge. […]

Compound: OC[C@H]1O[C@@H](c2ccc(Cl)c(Cc3ccc(OCCOC4CC4)cc3)c2)[C@H](O)[C@@H](O)[C@@H]1O [Bexagliflozin]
Reading unit: ng/mL
Cmax: 16.3

----------
# Assay comment: in vivo
# Assay context: beagle, dog, po, 0.2 mg/kg

Structure smiles string: OC[C@H]1O[C@@H](c2ccc(Cl)c(Cc3ccc(OCCOC4CC4)cc3)c2)[C@H](O)[C@@H](O)[C@@H]1O
Tmax / min: 15

----------
# Assay comment: in vivo
# Assay context: beagle, dog, po, 0.67 mg/kg
# Experimental: Groups of four purpose-bred beagles per cohort were administered ascending doses of bexagliflozin in the form of a proline co-crystal consisting of two moles of L-proline for every mole of bexagliflozin. […] Serum glucose concentrations were quantitated by an automated clinical chemistry analyzer for samples collected before dosing, before glucose challenge, and 15, 30, 60, and 120 min after glucose challenge. […]

Structure smiles string: OC[C@H]1O[C@@H](c2ccc(Cl)c(Cc3ccc(OCCOC4CC4)cc3)c2)[C@H](O)[C@@H](O)[C@@H]1O
Vd/F: 1.89 L/kg

----------
# Assay comment: in vivo
# Assay context: beagle, dog, po, 0.2 mg/kg

Structure smiles string: OC[C@H]1O[C@@H](c2ccc(Cl)c(Cc3ccc(OCCOC4CC4)cc3)c2)[C@H](O)[C@@H](O)[C@@H]1O
AUC(0-inf) [ng·h/mL]: 769

----------
# Assay comment: in vivo
# Assay context: beagle, dog, po, 0.067 mg/kg

Structure smiles string: OC[C@H]1O[C@@H](c2ccc(Cl)c(Cc3ccc(OCCOC4CC4)cc3)c2)[C@H](O)[C@@H](O)[C@@H]1O
half-life, h: 2.81

----------
# Assay comment: in vivo
# Assay context: beagle, dog, po, 0.67 mg/kg

Structure smiles string: OC[C@H]1O[C@@H](c2ccc(Cl)c(Cc3ccc(OCCOC4CC4)cc3)c2)[C@H](O)[C@@H](O)[C@@H]1O
Reading unit: min
Tmax: 30

----------
# Assay comment: in vivo
# Assay context: beagle, dog, po, 0.067 mg/kg
# Method: Groups of four purpose-bred beagles per cohort were administered ascending doses of bexagliflozin in the form of a proline co-crystal consisting of two moles of L-proline for every mole of bexagliflozin. […] Serum glucose concentrations were quantitated by an automated clinical chemistry analyzer for samples collected before dosing, before glucose challenge, and 15, 30, 60, and 120 min after glucose challenge. […]

Molecule: OC[C@H]1O[C@@H](c2ccc(Cl)c(Cc3ccc(OCCOC4CC4)cc3)c2)[C@H](O)[C@@H](O)[C@@H]1O [Bexagliflozin]
CL/F / mL/min/kg: 4.53

----------
# Assay comment: in vivo
# Assay context: beagle, dog, po, 0.67 mg/kg
Quantity name: AUC(0-t) (ng·h/mL)

Structure smiles string: OC[C@H]1O[C@@H](c2ccc(Cl)c(Cc3ccc(OCCOC4CC4)cc3)c2)[C@H](O)[C@@H](O)[C@@H]1O
Result number: 2600

----------
# Assay comment: in vivo
# Assay context: beagle, dog, po, 0.02 mg/kg
Quantity name: half-life (h)

Structure smiles string: OC[C@H]1O[C@@H](c2ccc(Cl)c(Cc3ccc(OCCOC4CC4)cc3)c2)[C@H](O)[C@@H](O)[C@@H]1O
Result number: 1.67

----------
# Assay comment: in vivo
# Assay context: beagle, dog, po, 0.067 mg/kg

Compound: OC[C@H]1O[C@@H](c2ccc(Cl)c(Cc3ccc(OCCOC4CC4)cc3)c2)[C@H](O)[C@@H](O)[C@@H]1O [Bexagliflozin]
Reading unit: ng·h/mL
AUC(0-t): 240

----------
# Assay comment: in vivo
# Assay context: beagle, dog, po, 0.02 mg/kg
# Experimental: Groups of four purpose-bred beagles per cohort were administered ascending doses of bexagliflozin in the form of a proline co-crystal consisting of two moles of L-proline for every mole of bexagliflozin. […] Serum glucose concentrations were quantitated by an automated clinical chemistry analyzer for samples collected before dosing, before glucose challenge, and 15, 30, 60, and 120 min after glucose challenge. […]

Structure smiles string: OC[C@H]1O[C@@H](c2ccc(Cl)c(Cc3ccc(OCCOC4CC4)cc3)c2)[C@H](O)[C@@H](O)[C@@H]1O
Vd/F [L/kg]: 1.08
